- Tested on: Anopheles stephensi
- ASSAY_EXPLANATION: Anopheles stephensi treated well plate contact test: knockdown and mortality
- Assay type: in vivo
- ASSAY_CONDITIONS: test compound 0.2 ppm plus 2 ppm TFNA-AM, after 24 hours
- Procedure: Examples Anopheles stephensi (Indian Malaria Mosquito) The individual wells of twelve (12) well tissue culture plates were treated with 200 μl of an ethanol solution containing a test compound of Table 1 or Table 2 at a defined concentration and repeated with also 200 μl of an ethanol solution containing in addition 2 ppm TFNA-AM. […]
READOUT_KIND: mortality % 24, with TFNA-AM
Quick note: unit goes after the number.

Recorded results for 3 compounds are shown here.
1) CNC(=O)Oc1ccccc1OC(C)C [Propoxur] | 100%
2) Nc1nc(N)nc(NC2CC2)n1 [Cyromazine] | 20%
3) CN1COCN(Cc2cnc(Cl)s2)/C1=N\[N+](=O)[O-] [Thiamethoxam] | 20%

We now examine a further compound.
Fill in: mortality % 24, with TFNA-AM of CCC(Nc1ncnc(C)c1Cl)c1ccc(OC(F)F)cc1 (stereo not shown) [Diflumetorim] is ___ 20%
